tested on: experimental DIC; experiment: Effect on experimental DIC and MOF (endotoxin-induced); assay type: in vivo, SD-rats; settings: Dose 100 μg/kg/min infusion, rat, 4 hours after endotoxin 10 mg/kg
readout.type: Plat

compound | result
CC(=O)c1ccc(NC(=O)[C@H](Cc2ccc(OCc3ccccn3)cc2)NC(=O)c2ccc(CN)cc2)cc1 | 80 ± 11 x 10^4/μl
NCC1CCC(C(=O)NC(Cc2ccccc2)C(=O)Nc2ccc(C(=O)O)cc2)CC1 (stereo not shown) | 62 ± 12 x 10^4/μl
NC[C@H]1CC[C@H](C(=O)N[C@@H](Cc2ccc([N+](=O)[O-])cc2)C(=O)Nc2ccc(C(=O)c3ccccc3)cc2)CC1 | 66 ± 10 x 10^4/μl
NCC1CCC(C(=O)NC(Cc2ccccc2)C(=O)Nc2ccc(CC(=O)O)cc2)CC1 (stereo not shown) | 63 ± 2 x 10^4/μl

====

target: human plasma kallikrein (Homo sapiens, UniProt P03952); construct: 50 µl of 0.12 units/ml human plasma kallikrein solution; test: Anti-plasma kallikrein activity: inhibition of S-2302 degradation; type: biochemical
Sequence (P03952 391-638 limits assumed): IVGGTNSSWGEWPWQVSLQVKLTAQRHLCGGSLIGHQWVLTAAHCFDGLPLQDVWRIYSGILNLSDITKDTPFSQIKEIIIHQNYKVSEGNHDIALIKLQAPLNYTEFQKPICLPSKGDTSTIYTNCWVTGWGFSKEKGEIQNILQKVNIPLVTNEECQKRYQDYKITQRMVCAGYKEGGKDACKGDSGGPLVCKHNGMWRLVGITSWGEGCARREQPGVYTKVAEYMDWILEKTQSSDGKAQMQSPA
Sequence (P03952 20-390 partner limits assumed): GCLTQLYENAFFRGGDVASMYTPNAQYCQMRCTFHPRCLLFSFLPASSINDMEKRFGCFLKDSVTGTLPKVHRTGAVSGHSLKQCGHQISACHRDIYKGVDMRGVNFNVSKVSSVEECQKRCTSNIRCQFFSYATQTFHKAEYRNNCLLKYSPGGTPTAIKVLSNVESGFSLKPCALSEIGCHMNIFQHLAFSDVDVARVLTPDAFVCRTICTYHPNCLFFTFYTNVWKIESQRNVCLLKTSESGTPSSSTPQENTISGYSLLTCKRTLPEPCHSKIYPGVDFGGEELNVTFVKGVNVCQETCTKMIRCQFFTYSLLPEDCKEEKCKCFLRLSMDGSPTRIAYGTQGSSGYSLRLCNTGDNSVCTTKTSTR

compound | IC50
CCOC(=O)c1ccc(OC(=O)CCCCCNC(=N)N)cc1 [FOY, gabexate mesilate, reference compound] | 1.3 µM

====

target: human plasma kallikrein (Homo sapiens, UniProt P03952); construct: 50 µl of 0.12 units/ml human plasma kallikrein solution; assay: Anti-plasma kallikrein activity: inhibition of S-2302 degradation; assay type: biochemical; details: substrate S-2302, 37°C, pH 7.8; read-out: Plasma kallikrein S-2302 (I50)
pIC50: −log10 of the molar value.

compound | target.desc | pIC50
CC(=O)c1ccc(NC(=O)[C@H](Cc2ccc(OCc3ccccn3)cc2)NC(=O)c2ccc(CN)cc2)cc1 | human plasma kallikrein (Homo sapiens, UniProt P03952) | 4.92
N=C(N)c1ccc2cc(OC(=O)c3ccc(N=C(N)N)cc3)ccc2c1 [FUT-175, nafamostat mesilate, reference compound] | human plasma kallikrein (Homo sapiens, UniProt P03952) | 7.10
NCC1CCC(C(=O)NC(Cc2ccccc2)C(=O)Nc2ccc(C(=O)O)cc2)CC1 (centres unmarked) | human plasma kallikrein (Homo sapiens, UniProt P03952) | 5.57
NC[C@H]1CC[C@H](C(=O)N[C@@H](Cc2ccc(OCc3ccccc3)cc2)C(=O)Nc2ccncn2)CC1 | human plasma kallikrein (Homo sapiens, UniProt P03952) | 5.29
NC[C@H]1CC[C@H](C(=O)NC(Cc2cccc(Oc3ccccc3)c2)C(=O)Nc2ccnc(Cl)c2)CC1 (mixture of isomers) | human plasma kallikrein (Homo sapiens, UniProt P03952) | 6.37

====

target: human plasmin (Homo sapiens, UniProt P00747); construct: 50 µl of 0.2 casein units/ml of human plasmin; experiment: Anti-plasmin activity: inhibition of fibrinolysis (fibrin clot lysis time); format: biochemical; settings: concentration giving a fibrin clot lysis time twice that of control, 37°C, pH7.4; read-out: Plasmin Fibrin (I50)
Sequence (P00747 581-810 limits assumed): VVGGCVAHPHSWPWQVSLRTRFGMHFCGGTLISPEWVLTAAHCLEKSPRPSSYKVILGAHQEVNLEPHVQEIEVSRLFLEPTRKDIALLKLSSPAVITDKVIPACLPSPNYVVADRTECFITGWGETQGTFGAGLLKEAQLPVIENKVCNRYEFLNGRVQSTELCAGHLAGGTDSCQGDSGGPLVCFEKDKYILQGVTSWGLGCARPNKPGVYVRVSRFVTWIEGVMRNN
Sequence (P00747 97-580 partner limits assumed): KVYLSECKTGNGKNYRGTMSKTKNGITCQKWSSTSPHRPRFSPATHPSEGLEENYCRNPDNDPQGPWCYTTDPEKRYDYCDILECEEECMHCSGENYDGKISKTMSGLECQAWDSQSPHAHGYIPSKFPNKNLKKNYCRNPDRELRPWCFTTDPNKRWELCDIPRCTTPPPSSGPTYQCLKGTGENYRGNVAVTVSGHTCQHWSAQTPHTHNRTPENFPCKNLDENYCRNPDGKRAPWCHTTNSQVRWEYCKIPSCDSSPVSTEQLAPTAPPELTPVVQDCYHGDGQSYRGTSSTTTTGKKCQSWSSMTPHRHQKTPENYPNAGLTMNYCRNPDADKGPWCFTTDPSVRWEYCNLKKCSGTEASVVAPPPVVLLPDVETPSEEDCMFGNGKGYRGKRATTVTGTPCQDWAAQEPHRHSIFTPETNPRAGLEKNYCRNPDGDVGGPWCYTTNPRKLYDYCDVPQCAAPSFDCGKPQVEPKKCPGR
pIC50: −log10 of the molar value.
readout.type: pIC50

compound | number
NCC1CCC(C(=O)NC(Cc2ccccc2)C(=O)Nc2ccc(C(=O)O)cc2)CC1 (centres unmarked) | 3.25
NC[C@H]1CC[C@H](C(=O)NC(Cc2cccc(Oc3ccccc3)c2)C(=O)Nc2cccnc2)CC1 (mixture of isomers) | 4.15
NCC1CCC(C(=O)NC(Cc2ccccc2)C(=O)Nc2ccc(CC(=O)O)cc2)CC1 (centres unmarked) | 3.34
NC[C@H]1CC[C@H](C(=O)N[C@@H](Cc2ccc([N+](=O)[O-])cc2)C(=O)Nc2ccc(C(=O)c3ccccc3)cc2)CC1 | 5.74
CC(=O)c1ccc(NC(=O)[C@H](Cc2ccc(OCc3ccccn3)cc2)NC(=O)[C@H]2CC[C@H](CN)CC2)cc1 | 5.85
CC(=O)c1ccc(NC(=O)[C@H](Cc2ccc(OCc3cccc(Cl)c3)cc2)NC(=O)[C@H]2CC[C@H](CN)CC2)cc1 | 7.00
NC[C@H]1CC[C@H](C(=O)N[C@@H](Cc2ccc(OCc3ccccc3)cc2)C(=O)Nc2ccncn2)CC1 | 5.17
NC[C@H]1CC[C@H](C(=O)N[C@@H](Cc2ccc(OCc3ccccc3)cc2)C(=O)Nc2ccc(CC(=O)O)cc2)CC1 | 5.04
NCC1CCC(C(=O)N[C@H](Cc2ccc([N+](=O)[O-])cc2)C(=O)Nc2ccc(C(=O)c3ccccc3)cc2)CC1 (some centres unmarked) | 4.24
NC[C@H]1CC[C@H](C(=O)N[C@@H](Cc2ccc(OCc3ccccc3)cc2)C(=O)Nc2cccnc2)CC1 | 5.54
CC(=O)c1ccc(NC(=O)[C@H](Cc2ccc(OCc3ccccn3)cc2)NC(=O)c2ccc(CN)cc2)cc1 | 5.60
